Details: in acetone, 288.15 K
Assay readout: solubility (mole fraction)
Please reply with the number alone, leaving off any unit.

Identify solubility (mole fraction) associated with the molecule `CC[C@H]1OC(=O)[C@H](C)[C@@H](O[C@H]2C[C@@](C)(OC)[C@@H](O)[C@H](C)O2)[C@H](C)[C@@H](O[C@@H]2O[C@H](C)C[C@H](N(C)C)[C@H]2O)[C@](C)(O)C[C@@H](C)CN(C)[C@H](C)[C@@H](O)[C@]1(C)O.O`
0.0353

---

Details: in ethanol, 298.15 K
Assay readout: solubility (mole fraction)
Please respond with just the number, no unit label.

# return recorded solubility (mole fraction) for entry `CC[C@H]1OC(=O)[C@H](C)[C@@H](O[C@H]2C[C@@](C)(OC)[C@@H](O)[C@H](C)O2)[C@H](C)[C@@H](O[C@@H]2O[C@H](C)C[C@H](N(C)C)[C@H]2O)[C@](C)(O)C[C@@H](C)CN(C)[C@H](C)[C@@H](O)[C@]1(C)O.O`
0.0406
